- Target Desc: corticotropin releasing factor 1 receptor; further: reference of the scale not given here
- Protocol Text: cell-based or functional assay
Ends that are not written are not given here.
Measured Parameter: CRF1R Emax (%)
Expressed in %, but write only the number.

Lookup: Using the record for ZGPPISIDLPFQLLRKMIEIEKQEKEKQQATNNRLLLATV (C-terminal amide) [SEQ ID NO 12] , state its measured CRF1R Emax.
Found: 73

Lookup: Return CRF1R Emax for the following binder: IVLSLDVPIGLLQILLEQERARAAREQATTNARILARV-NH2 [SEQ ID NO 119]
Found: 3

Lookup: Give the reported CRF1R Emax for this binder. ZGPPISIDLPFLLLRKMIEIEKQEKEKQQAANNRLLLDTI (C-terminal amide) [SEQ ID NO 191]
Found: 65

Lookup: Kindly indicate its recorded CRF1R Emax. Item: ZGPPISIDLPHHLLRKMIEIEKQEKEKQQAANNRLLLDTI (C-terminal amide) [SEQ ID NO 205]
Found: 88

Lookup: Dear colleague, please send me the reported CRF1R Emax for SQEPPISLDLTIHLLREVLEMTKADQLAQQAHSNRKLLDIA-NH2 [SEQ ID NO 87] when you can.
Found: 5.3

Lookup: Recall and state the measured CRF1R Emax for ZGPPISIDLPPYLLRKMIEIEKQEKEKQQAANNRLLLDTI (C-terminal amide) [SEQ ID NO 57] .
Found: 12

Lookup: Read off the recorded CRF1R Emax for ZGPPISIDLPIVLLRKMIEIEKQEKEKQQAANNRLLLDTI (C-terminal amide) [SEQ ID NO 31]
Found: 18
